- Measurement target: GLP-1R (Homo sapiens, UniProt P43220)
- Sequence (P43220 24-463): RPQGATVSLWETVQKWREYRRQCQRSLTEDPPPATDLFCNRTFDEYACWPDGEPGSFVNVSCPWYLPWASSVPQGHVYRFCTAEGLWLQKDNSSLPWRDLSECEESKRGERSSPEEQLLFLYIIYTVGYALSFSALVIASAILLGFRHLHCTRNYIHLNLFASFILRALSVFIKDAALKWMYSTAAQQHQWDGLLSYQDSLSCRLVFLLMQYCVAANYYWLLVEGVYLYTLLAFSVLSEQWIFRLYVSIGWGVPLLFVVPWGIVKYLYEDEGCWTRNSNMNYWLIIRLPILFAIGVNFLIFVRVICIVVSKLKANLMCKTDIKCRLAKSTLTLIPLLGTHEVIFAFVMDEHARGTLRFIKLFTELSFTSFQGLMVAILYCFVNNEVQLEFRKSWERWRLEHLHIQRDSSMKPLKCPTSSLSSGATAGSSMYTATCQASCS
- Protocol: GLP-1R activation cAMP assay (Assay 1 or Assay 2)
- Condition notes: cAMP increase in CHO cells stably expressing GLP-1R; compounds run on one of the two cAMP assays
In this section we review reported EC50 values for a set of compounds.
Output should be the measured figure followed by the unit it is expressed in.

# example entries with known answers
{"columns": ["Chemical string", "Readout value"],
 "data": [
  ["O=C(O)c1ccc2nc(Cc3cc(F)c(-c4cccc(OCc5nnc(C6CC6)s5)n4)cc3F)n(C[C@@H]3CCO3)c2c1", "0.59 nM"],
  ["CC1(C#Cc2cnc(COc3cccc(-c4cc(F)c(Cc5nc6ccc(C(=O)O)cc6n5C[C@@H]5CCO5)cc4F)n3)s2)COC1", "0.07 nM"],
  ["COCCn1c(Cc2cc(F)c(-c3cccc(OCc4ccc(-c5ccc(N6CCCC6)nc5)cc4F)n3)cc2F)nc2ccc(C(=O)O)cc21", "26 nM"]
]}

For `Cn1cnc(COc2cccc(-c3cc(F)c(Cc4nc5ccc(C(=O)O)cc5n4C[C@@H]4CCO4)cc3F)n2)c1` the compound record lists EC50 as 34.6 nM

For `Cn1cc(-c2ncc(COc3cccc(-c4cc(F)c(Cc5nc6ccc(C(=O)O)cc6n5C[C@@H]5CCO5)cc4F)n3)s2)cn1` the compound record lists EC50 as 0.355 nM

For `O=C(O)c1ccc2nc(Cc3cc(F)c(-c4cccc(OCc5nnc(C(F)F)s5)n4)cc3F)n(C[C@@H]3CCO3)c2c1` the compound record lists EC50 as 0.96 nM
